experiment: Cmax in C57BL6 mouse plasma at 50 mg/kg, ip measured at 0.5 hrs by LC-MS/MS analysis
Format: ADME, organism-based
reported-metric: Cmax (µM)

smiles_notation=COc1cc2c(NC3CCN(CCCC(=O)NCCCCCCCCCCCC(=O)N[C@H](C(=O)N4C[C@H](O)C[C@H]4C(=O)NCc4ccc(-c5scnc5C)cc4)C(C)(C)C)CC3)nc(N3CCC(F)(F)CC3)nc2cc1OCCCN1CCCC1 reported_metric=Cmax unit=µM number=27

* * *

assay-system: von Hippel-Lindau disease tumor suppressor/Histone-lysine N-methyltransferase EHMT1 (Homo sapiens, UniProt Q9H9B1+P40337)
Sequence (P40337 whole entry partner): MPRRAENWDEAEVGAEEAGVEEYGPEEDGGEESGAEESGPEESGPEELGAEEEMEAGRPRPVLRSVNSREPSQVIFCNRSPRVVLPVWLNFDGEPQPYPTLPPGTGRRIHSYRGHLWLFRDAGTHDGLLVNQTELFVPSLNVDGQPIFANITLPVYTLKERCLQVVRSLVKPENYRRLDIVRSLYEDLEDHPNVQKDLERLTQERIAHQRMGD
Sequence (Q9H9B1 2-1298 limits assumed): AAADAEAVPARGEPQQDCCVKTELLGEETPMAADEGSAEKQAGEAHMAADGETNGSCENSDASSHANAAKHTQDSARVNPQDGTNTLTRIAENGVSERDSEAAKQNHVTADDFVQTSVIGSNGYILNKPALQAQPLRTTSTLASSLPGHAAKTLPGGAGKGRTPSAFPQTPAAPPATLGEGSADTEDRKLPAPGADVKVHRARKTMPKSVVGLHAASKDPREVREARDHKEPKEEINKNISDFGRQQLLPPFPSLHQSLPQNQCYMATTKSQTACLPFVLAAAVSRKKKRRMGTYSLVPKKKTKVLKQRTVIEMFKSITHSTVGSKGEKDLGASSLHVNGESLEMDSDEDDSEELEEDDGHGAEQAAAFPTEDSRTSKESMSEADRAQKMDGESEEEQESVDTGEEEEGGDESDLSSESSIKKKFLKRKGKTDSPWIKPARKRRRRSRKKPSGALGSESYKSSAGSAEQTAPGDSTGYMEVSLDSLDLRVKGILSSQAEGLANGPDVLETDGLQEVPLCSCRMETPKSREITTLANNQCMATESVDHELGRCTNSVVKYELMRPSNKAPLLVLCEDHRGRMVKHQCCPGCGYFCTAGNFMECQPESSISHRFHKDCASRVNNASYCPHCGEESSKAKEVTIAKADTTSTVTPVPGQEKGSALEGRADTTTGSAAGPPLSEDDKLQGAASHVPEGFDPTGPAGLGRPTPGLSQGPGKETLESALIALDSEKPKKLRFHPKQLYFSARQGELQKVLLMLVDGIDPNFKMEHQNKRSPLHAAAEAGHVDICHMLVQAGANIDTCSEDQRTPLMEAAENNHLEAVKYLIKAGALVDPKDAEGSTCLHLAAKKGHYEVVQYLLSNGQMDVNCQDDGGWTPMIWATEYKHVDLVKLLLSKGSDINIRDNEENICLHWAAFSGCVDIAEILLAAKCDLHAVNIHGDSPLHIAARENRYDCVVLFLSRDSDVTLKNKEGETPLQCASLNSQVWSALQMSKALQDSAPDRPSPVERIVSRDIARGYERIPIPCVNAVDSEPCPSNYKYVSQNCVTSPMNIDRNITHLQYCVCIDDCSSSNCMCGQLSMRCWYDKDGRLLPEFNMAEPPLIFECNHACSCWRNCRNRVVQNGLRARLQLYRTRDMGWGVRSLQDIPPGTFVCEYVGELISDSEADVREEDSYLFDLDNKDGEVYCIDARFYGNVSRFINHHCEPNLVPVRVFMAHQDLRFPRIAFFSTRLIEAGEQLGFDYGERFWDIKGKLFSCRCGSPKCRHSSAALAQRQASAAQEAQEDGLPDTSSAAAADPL
experiment: PROTAC activity at GLP/VHL in human 22Rv1 cells assessed as induction of GLP degradation at 3 uM incubated for 24 hrs by Western blot analysis relative to control
Format: cell-based
reported-metric: Emax (%)

smiles_notation=COc1cc2c(NC3CCN(CCCC(=O)NCCCCCC(=O)N[C@H](C(=O)N4C[C@H](O)C[C@H]4C(=O)NCc4ccc(-c5scnc5C)cc4)C(C)(C)C)CC3)nc(N3CCC(F)(F)CC3)nc2cc1OCCCN1CCCC1 reported_metric=Emax unit=% reported_relation=< number=19
smiles_notation=COc1cc2c(NC3CCN(CCCC(=O)NCCCCCCCC(=O)N[C@H](C(=O)N4C[C@H](O)C[C@H]4C(=O)NCc4ccc(-c5scnc5C)cc4)C(C)(C)C)CC3)nc(N3CCC(F)(F)CC3)nc2cc1OCCCN1CCCC1 reported_metric=Emax unit=% reported_relation== number=68
smiles_notation=COc1cc2c(NC3CCN(CCCC(=O)NCCCCCCCCCCCC(=O)N[C@H](C(=O)N4C[C@H](O)C[C@H]4C(=O)NCc4ccc(-c5scnc5C)cc4)C(C)(C)C)CC3)nc(N3CCC(F)(F)CC3)nc2cc1OCCCN1CCCC1 reported_metric=Emax unit=% reported_relation=> number=99
smiles_notation=COc1cc2c(NC3CCN(CCCC(=O)NCCOCCOCCC(=O)N[C@H](C(=O)N4C[C@H](O)C[C@H]4C(=O)NCc4ccc(-c5scnc5C)cc4)C(C)(C)C)CC3)nc(N3CCC(F)(F)CC3)nc2cc1OCCCN1CCCC1 reported_metric=Emax unit=% reported_relation== number=21
smiles_notation=COc1cc2c(NC3CCN(CCCC(=O)NCCOCCC(=O)N[C@H](C(=O)N4C[C@H](O)C[C@H]4C(=O)NCc4ccc(-c5scnc5C)cc4)C(C)(C)C)CC3)nc(N3CCC(F)(F)CC3)nc2cc1OCCCN1CCCC1 reported_metric=Emax unit=% reported_relation== number=88

* * *

assay-system: von Hippel-Lindau disease tumor suppressor/Histone-lysine N-methyltransferase EHMT1 (Homo sapiens, UniProt Q9H9B1+P40337)
experiment: PROTAC activity at GLP/VHL in human 22Rv1 cells assessed as induction of GLP degradation at 0.3 uM incubated for 24 hrs by Western blot analysis relative to control
Type: cell-based
reported-metric: Emax (%)

smiles_notation=COc1cc2c(NC3CCN(CCCC(=O)NCCCCCC(=O)N[C@H](C(=O)N4C[C@H](O)C[C@H]4C(=O)NCc4ccc(-c5scnc5C)cc4)C(C)(C)C)CC3)nc(N3CCC(F)(F)CC3)nc2cc1OCCCN1CCCC1 reported_relation=< number=5
smiles_notation=COc1cc2c(NC3CCN(CCCC(=O)NCCCCCCCCCC(=O)N[C@H](C(=O)N4C[C@H](O)C[C@H]4C(=O)NCc4ccc(-c5scnc5C)cc4)C(C)(C)C)CC3)nc(N3CCC(F)(F)CC3)nc2cc1OCCCN1CCCC1 reported_relation== number=84
smiles_notation=COc1cc2c(NC3CCN(CCCC(=O)NCCCCCCCCCCCC(=O)N[C@H](C(=O)N4C[C@H](O)C[C@H]4C(=O)NCc4ccc(-c5scnc5C)cc4)C(C)(C)C)CC3)nc(N3CCC(F)(F)CC3)nc2cc1OCCCN1CCCC1 reported_relation== number=49
